TARGET_OR_TEST_SYSTEM: full-length beta-Catenin (Uniprot ID P35222) (Homo sapiens (Human)) (UniProt P35222)
Sequence (P35222 whole entry): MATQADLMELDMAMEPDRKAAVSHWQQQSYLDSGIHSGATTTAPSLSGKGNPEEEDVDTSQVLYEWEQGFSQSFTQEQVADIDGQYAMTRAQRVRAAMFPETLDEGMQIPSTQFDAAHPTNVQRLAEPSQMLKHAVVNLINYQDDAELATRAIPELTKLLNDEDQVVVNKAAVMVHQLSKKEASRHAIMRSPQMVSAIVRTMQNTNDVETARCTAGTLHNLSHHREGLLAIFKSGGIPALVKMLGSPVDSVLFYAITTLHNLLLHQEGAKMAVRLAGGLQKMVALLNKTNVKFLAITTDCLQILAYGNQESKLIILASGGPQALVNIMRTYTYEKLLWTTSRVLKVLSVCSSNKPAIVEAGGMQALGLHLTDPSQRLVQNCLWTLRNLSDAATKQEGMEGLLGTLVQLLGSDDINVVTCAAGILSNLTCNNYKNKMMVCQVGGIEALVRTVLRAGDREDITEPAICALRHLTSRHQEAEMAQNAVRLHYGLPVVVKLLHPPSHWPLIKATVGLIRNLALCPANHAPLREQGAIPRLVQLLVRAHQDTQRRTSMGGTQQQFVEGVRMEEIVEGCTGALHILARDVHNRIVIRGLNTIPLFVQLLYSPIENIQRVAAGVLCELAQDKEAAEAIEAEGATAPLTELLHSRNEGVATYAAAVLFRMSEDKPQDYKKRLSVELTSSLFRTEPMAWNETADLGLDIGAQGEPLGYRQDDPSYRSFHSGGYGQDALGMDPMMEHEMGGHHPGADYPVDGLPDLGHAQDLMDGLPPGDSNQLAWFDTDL
ASSAY_SUMMARY: fluorescence polarization competition; competitor 5FAM-TCF4(10-53) probe on full-length beta-catenin
Starred links: 1 amine or outer side, 2 acyl side, 3 side chain; linkers in the order of their positions; H or OH if unused. Positions of bridges follow the written chain, without caps; N, C: chain ends. Non-standard residues stand in square brackets, D forms with d. Primed or numbered codes have the meaning given here. PyrS2″ = (S)-3-amino-1-((pent-4-en-1-yloxy)carbonyl)pyrrolidine-3-carboxylic acid (stapling residue), C=CCCCOC(=O)N1CC[C@@](N[*:1])(C(=O)[*:2])C1; B5(4) = 2,2-bis(4-pentenyl)glycine = 2-amino-2-(pent-4-en-1-yl)hept-6-enoic acid (stitching residue), C=CCCCC(CCCC=C)(N[*:1])C(=O)[*:2]; Phe(3-COOH) = N[C@@H](Cc1cccc(C(=O)O)c1)C(=O)O; Bta = N[C@@H](Cc1csc2ccccc12)C(=O)O; Lys(iPr) = CC(C)NCCCC[C@H](N)C(=O)O; αAllylPro = C=CC[C@@]1(C(=O)O)CCCN1; tBuAla = CC(C)(C)C[C@H](N)C(=O)O; 3Thi = N[C@@H](Cc1ccsc1)C(=O)O; Cha = N[C@@H](CC1CCCCC1)C(=O)O; hSer = N[C@@H](CCO)C(=O)O
# IC50 annotations
Report as a plain number; the unit nM is understood.

Ac-[αAllylPro]N[Cha][B5(4)]DQ[Lys(iPr)]AF[Lys(iPr)][PyrS2″]F[Bta][hSer]-NH2 (staple 1-4, 4-11) [I-2102]
273
Ac-[αAllylPro]D[tBuAla][B5(4)]DWAA[Phe(3-COOH)][hSer][PyrS2″][3Thi][Bta]Q-NH2 (staple 1-4, 4-11) [I-2128]
29
Ac-[αAllylPro]D[tBuAla][B5(4)]DHAA[Phe(3-COOH)]L[PyrS2″][3Thi][Bta]Q-NH2 (staple 1-4, 4-11; also: earlier eluting HPLC isomer composition) [I-2122]
12

Now for another entry.
Quick check: IC50 of Ac-[αAllylPro]N[Cha][B5(4)]DQ[Lys(iPr)]AFN[PyrS2″]F[Bta]K-NH2 (staple 1-4, 4-11) [I-2110] ? 88

Data origin, for the record: patent US20240116985A1
